TARGET_DESC: Human Calpain 9/NS1 (Homo sapiens, UniProt O14815)
Sequence (O14815 whole entry): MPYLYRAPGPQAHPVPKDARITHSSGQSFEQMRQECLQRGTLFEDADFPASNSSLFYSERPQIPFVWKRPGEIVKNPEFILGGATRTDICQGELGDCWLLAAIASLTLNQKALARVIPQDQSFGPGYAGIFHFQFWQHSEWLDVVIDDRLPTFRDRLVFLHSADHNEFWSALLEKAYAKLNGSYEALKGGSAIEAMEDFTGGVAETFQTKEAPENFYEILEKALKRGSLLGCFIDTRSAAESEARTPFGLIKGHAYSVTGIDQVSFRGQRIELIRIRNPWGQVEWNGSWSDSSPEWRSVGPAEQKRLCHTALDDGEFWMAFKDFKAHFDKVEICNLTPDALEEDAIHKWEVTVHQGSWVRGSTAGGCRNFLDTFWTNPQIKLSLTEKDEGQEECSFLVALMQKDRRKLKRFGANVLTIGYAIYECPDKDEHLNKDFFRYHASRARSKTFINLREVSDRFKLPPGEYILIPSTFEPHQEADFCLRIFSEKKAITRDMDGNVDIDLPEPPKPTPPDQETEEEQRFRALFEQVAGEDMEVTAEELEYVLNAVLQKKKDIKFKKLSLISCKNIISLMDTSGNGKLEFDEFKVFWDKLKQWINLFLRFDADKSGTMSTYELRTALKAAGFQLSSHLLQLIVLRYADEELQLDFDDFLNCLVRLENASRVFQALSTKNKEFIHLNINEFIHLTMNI
Sequence (P04632 whole entry partner): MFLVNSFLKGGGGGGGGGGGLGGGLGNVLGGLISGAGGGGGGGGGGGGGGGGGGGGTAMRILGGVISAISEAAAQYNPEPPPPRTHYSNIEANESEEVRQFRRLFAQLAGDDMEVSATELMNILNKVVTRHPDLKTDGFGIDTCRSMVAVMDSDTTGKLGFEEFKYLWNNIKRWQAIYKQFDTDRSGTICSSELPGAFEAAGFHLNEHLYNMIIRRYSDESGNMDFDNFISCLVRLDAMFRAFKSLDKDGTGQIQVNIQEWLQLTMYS
MEASUREMENT_NOTES: Biochemical inhibition of calpain 9, continuous fluorescence (FRET substrate) assay
CONDITION_NOTES: mean, read-out: Human Calpain 9/NS1 IC50 (nM)_MEAN
Experimental: Calpain 1, 2, and 9 activity and inhibition thereof are assessed by means of a continuous fluorescence assay. The SensoLyte 520 Calpain substrate (Anaspec Inc) is optimized for detecting calpain activity. This substrate contains a novel internally quenched 5-FAM/QXL™ 520 FRET pair. Calpains 1, 2, and 9 cleave the FRET substrate into two separate fragments resulting in an increase of 5-FAM fluorescence that is proportional to calpain activity. […]
ASSAY_ENDPOINT: IC50

Field: example entries. Status: answers known.
>>> result("NC(=O)C(=O)[C@@H]1CCCCCCOc2ccnc(c2)-c2ccccc2C(=O)N1 [Compound 132]")
"< 3000 nM"
>>> result("O=C[C@@H]1CC=CCCCCOc2ccccc2C(=O)N1 (mixture of isomers) [Compound 5]")
"< 3000 nM"

q: Consider the compound O=C[C@@H]1CC=CCOCCOc2ccccc2C(=O)N1 [Compound 18] and give its measured IC50.
a: 3000 to 10000 nM

q: Consider the compound NC(=O)C(O)[C@@H]1CCCCCOc2ccnc(n2)-c2ccccc2C(=O)N1 (some centres unmarked) [Compound 147] and give its measured IC50.
a: > 10000 nM

q: Consider the compound CC(C)CCNC(=O)C(=O)C1CCCCOCCOCc2ccccc2C(=O)N1 (centres unmarked) [Compound 90] and give its measured IC50.
a: < 3000 nM

q: Consider the compound O=C(NC1CC1)C(=O)[C@@H]1Cc2ccc(cc2)CCCCc2cccc(c2)-c2ccn(n2)-c2ncccc2C(=O)N1 [Compound 74] and give its measured IC50.
a: < 3000 nM

q: Consider the compound O=C(NCc1ccc(Cl)c(Cl)c1)C(=O)C1CCCCOCCOCc2ccccc2C(=O)N1 (centres unmarked) [Compound 83] and give its measured IC50.
a: < 3000 nM

q: Consider the compound O=C(NCc1cccc(OC(F)(F)F)c1)C(=O)C1CCCCOCCOCc2ccccc2C(=O)N1 (centres unmarked) [Compound 120] and give its measured IC50.
a: < 3000 nM

q: Consider the compound NS(=O)(=O)c1ccc(CNC(=O)C(=O)C2CCCCOCCOCc3ccccc3C(=O)N2)cc1 (centres unmarked) [Compound 84] and give its measured IC50.
a: < 3000 nM

q: Consider the compound O=C[C@@H]1CC=CCCOc2nccc(n2)-c2ccccc2C(=O)N1 [Compound 40] and give its measured IC50.
a: < 3000 nM

q: Consider the compound O=C[C@@H]1CCCCCOc2cccc(c2)-c2ccccc2C(=O)N1 [Compound 30] and give its measured IC50.
a: < 3000 nM

q: Consider the compound O=C[C@@H]1CC=CCCOc2ccnc(n2)-c2ccccc2C(=O)N1 [Compound 39] and give its measured IC50.
a: < 3000 nM

q: Consider the compound O=C[C@@H]1CC=CCCOc2cccc(c2)-c2ncccc2C(=O)N1 [Compound 37] and give its measured IC50.
a: < 3000 nM

q: Consider the compound O=C[C@@H]1CC=CCCCCCc2ccccc2C(=O)N1 [Compound 14] and give its measured IC50.
a: < 3000 nM

q: Consider the compound O=C[C@@H]1CCCCCOc2cccc(c2)-c2ncccc2C(=O)N1 [Compound 38] and give its measured IC50.
a: < 3000 nM

q: Consider the compound CCOc1ccccc1CNC(=O)C(=O)C1CCCCOCCOCc2ccccc2C(=O)N1 (centres unmarked) [Compound 102] and give its measured IC50.
a: < 3000 nM

q: Consider the compound Cc1ccc(Cl)cc1CNC(=O)C(=O)C1CCCCOCCOCc2ccccc2C(=O)N1 (centres unmarked) [Compound 108] and give its measured IC50.
a: < 3000 nM

q: Consider the compound NC(=O)C(=O)[C@@H]1CCCCCOc2cccc(c2)-c2n[nH]cc2C(=O)N1 [Compound 140] and give its measured IC50.
a: < 3000 nM

q: Consider the compound O=C(NCCc1ccc(Cl)cc1)C(=O)[C@@H]1CCCCOCCOCc2ccccc2C(=O)N1 [Compound 128] and give its measured IC50.
a: < 3000 nM

q: Consider the compound O=C(NCc1ccncc1)C(=O)C1CCCCOCCOCc2ccccc2C(=O)N1 (centres unmarked) [Compound 117] and give its measured IC50.
a: < 3000 nM
